system: HOP-92 NSCLC; experiment: NCI tumour cell line growth inhibition, 48 h
Listing of recorded TGI by entry.

1. CCC1(CC)C(=O)CC[C@@]2(C)C1=CC[C@H]1[C@@H]3CC[C@H](O)[C@@]3(C)CC[C@@H]12 = > 100 µM
2. CCOC(=O)c1cc2c(OC(C)=O)ccc(OC(C)=O)c2s1 = 3.16 µM
3. C=C(C=O)C1CC(=O)C(C(=O)OC)[C@@H]2O[C@@](C)(CC2=O)C[C@@H]2OC(=O)[C@]3(O[C@@H]23)[C@@H](C(=O)OC)C1 (stereo partly specified) = 37.9 µM
4. c1ccc2c(CNCCCCCCNCc3cccc4ccccc34)cccc2c1 = 20.5 µM
5. COc1ccc(SC2c3cc(OC)c(OC)cc3Oc3nc(N)c(C#N)c(N)c32)cc1 (stereo unspecified) = 2.72 µM
6. CC(=O)Oc1ccc(OC(C)=O)c2ccccc12 = 3.05 µM
7. CC(C)CCC[C@@H](C)[C@H]1CC[C@H]2[C@@H]3CC=C4C[C@@H](OC(=O)c5cccc6c(=O)c7ccccc7[nH]c56)CC[C@]4(C)[C@H]3CC[C@]12C = > 75 µM
8. Cn1cnc([N+](=O)[O-])c1Sc1ccccn1 = > 100 µM

Value lookup for TGI; key = COC(=O)C(/C(=N/NC(=O)c1ccncc1)C(=O)Nc1ccccc1OC)c1nc2ccc(Cl)cc2[nH]c1=O (stereo unspecified)
> 100 µM

Another compound to check: O=C(O)C(CCc1ccccn1)c1ccccc1 (stereo unspecified)
> 100 µM

Ok, now O=[N+]([O-])c1cccc([N+](=O)[O-])c1S(=O)(=O)c1ccccc1
7.18 µM

Then this compound: O=C(CC(=O)N1N=C(c2ccccc2)C(N=Nc2ccc(C(=O)O)cc2)C1=O)Nc1ccc(F)cc1 (stereo unspecified)
> 100 µM

# repeat for O=C(Nn1c(-c2ccccc2)nc2ccccc2c1=O)c1ccccn1
> 100 µM

And for COc1cc(C2C3=C(CCC3=O)Oc3cc4c(cc32)OCO4)cc(OC)c1OC (stereo unspecified) ?
6.47 µM

Entry COc1ccc(-c2ccc(/C=C/C(=O)NO)cc2)cc1 please
4.98 µM

###

tested on: HT29 colon; test: NCI tumour cell line growth inhibition, 48 h
ENDPOINT LABEL: TGI (µM)
A number alone suffices; assume µM.

# example entries with known answers
1. Cc1c2c3cc(O)ccc3nc-2n(C)c2ccccc12 = 7.26
2. CCN1CCN(c2nc(NNC(=O)Cc3ccccc3)nc(N3CCN(C(c4ccccc4)c4ccccc4)CC3)n2)CC1 = 5.66
3. CC(C)C[C@H](NC(=O)[C@H](CCc1ccccc1)NC(=O)CN1CCOCC1)C(=O)N[C@@H](Cc1ccccc1)C(=O)N[C@@H](CC(C)C)C(=O)[C@@]1(C)CO1 = 0.0471

Which TGI is listed for CCCCC[C@@H]1OCO[C@@]2(C)/C=C(C)/C=C/C(=O)O[C@H]([C@@H](C)[C@@H](O)[C@H](C)[C@@]3(O)C[C@@H](O[C@H]4C[C@@H](O)[C@H](O)[C@@H](C)O4)[C@H](C)[C@@H](C)O3)[C@@H](OC)/C=C/C=C(\C)C[C@@H]1[C@@H]2O (stereo in doubt) ?
0.0544

###

test system: M14 melanoma; test: NCI tumour cell line growth inhibition, 48 h; in the data active means GI50 below about 0.43 µM; inactive means the rest
Classes to choose from: active, inactive

Field: example entries. Status: answers known.
1. COc1ccc2c(c1)CCC1C2CC[C@@]2(C)C1CC[C@@]2(O)CNC(=O)/C=C/c1ccc(O)c(OC)c1 (some centres undefined) = inactive
2. Nc1ccc(-c2nc3ccc4[nH]ncc4c3c3c2CCCC3)cc1F = inactive
3. CC(C)C[C@H](NC(=O)[C@H](CCc1ccccc1)NC(=O)CN1CCOCC1)C(=O)N[C@@H](Cc1ccccc1)C(=O)N[C@@H](CC(C)C)C(=O)[C@@]1(C)CO1 = active
4. O=C1c2ccccc2C(=O)c2c1ccc(C(Br)Br)c2[N+](=O)[O-] = inactive

Which outcome was entered for the compound CC[C@@]1(O)C(=O)NCc2c1cc1n(c2=O)Cc2cc3ccccc3nc2-1 in this test?
inactive

Same question for COc1ccc(C(=O)c2cc(OC)c(OC)c(OC)c2)cc1OC(C)=O please.
active

Try CN(C)[C@@H]1C(=O)C(C(N)=O)=C(O)[C@@]2(O)C(=O)C3=C(O)c4c(O)cc(CN5CCc6ccccc6C5)c(Cl)c4C[C@H]3C[C@@H]12 next.
inactive

Proceed to COc1ccc(N2CCN(C(=O)c3ccccc3Nc3ccnc(C(F)(F)F)c3)CC2)cc1
inactive

Another compound to check: CN(C)c1ccc(/C=C2\C[C@H]3[C@@H]4CC=C5C[C@@H](N6CCCC6)CC[C@]5(C)[C@H]4CC[C@]3(C)[C@H]2O)cc1
inactive

Query Cc1ccc2c(c1)C(=O)c1c-2n(CCCN)c(=O)c2cc([N+](=O)[O-])ccc12 next
inactive

Another compound: CC(=O)Oc1ccc(OC(C)=O)c2ccccc12
inactive

###

system: MALME-3M melanoma; experiment: NCI tumour cell line growth inhibition, 48 h; in the data active = GI50 below about 0.43 µM; inactive = the rest
Would you mind answering with one of these outcomes? active, inactive

These recorded examples may help you get a feel for the data.
1) CCOC(=O)c1sc(-c2ccc(OS(=O)(=O)c3cccs3)c(C=O)c2)nc1C = inactive
2) Nc1ncnc2c1c(C(F)(F)F)cn2[C@@H]1O[C@H](CO)[C@@H](O)[C@H]1O = active
3) O=C(NCc1cccnc1)/C(=C\c1ccc(Br)cc1)S(=O)(=O)c1ccccc1 = inactive
4) COc1cc(-c2cc(-c3ccc(N(C)C)cc3)nc(N3CCOCC3)c2C#N)cc(OC)c1OC = inactive

Give the logged outcome of this assay for the following compound: CCSc1oc(-c2ccccc2)nc1[P+](c1ccccc1)(c1ccccc1)c1ccccc1
active

Would you kindly repeat that for CC[C@@]1(O)C(=O)NCc2c1cc1n(c2=O)Cc2cc3ccccc3nc2-1 ?
inactive

Now the compound COc1ccc(C(=O)c2cc(OC)c(OC)c(OC)c2)cc1OC(C)=O
inactive

One more compound: O=C1c2ccccc2C(=O)c2c1ccc(C(Br)Br)c2[N+](=O)[O-]
inactive

Also COc1ccc(-c2ccc3c(NC(=O)C4CC4)n[nH]c3n2)cc1 ?
inactive

Follow-up entry: COc1ccc(/C(C)=C(\c2ccc(Cl)cc2)c2ccc(OCCN3CCCC3)cc2)cc1
inactive

What do you have for Cn1c2ccccc2c(=Nc2ccccc2)c2c3ccccc3[nH]c21 ?
active

// next record COc1cc(C)c(C(=O)O[C@H]2[C@H](O[C@H]3[C@@H](O)COC(O[C@H]4C[C@H]5[C@@H]6CC=C7C[C@@H](O)CC[C@]7(C)[C@H]6CC[C@]5(C)[C@H]4[C@H](C)C(=O)CCC(C)C)[C@@H]3OC(C)=O)OC[C@@H](O)[C@@H]2O)c(C)c1 (some centres undefined)
active

Cn1nc(C(F)(F)F)c(-c2ccc(Cl)c(C(F)(F)F)c2)c1-c1ccc(OCc2ccc(Cl)cc2)cc1O , same question.
inactive

Thanks! And COc1ccc2c(c1)CCC1C2CC[C@@]2(C)C1CC[C@@]2(O)CNC(=O)/C=C/c1ccc(O)c(OC)c1 (some centres undefined) ?
inactive

###

test system: COLO 205 colon; assay: NCI tumour cell line growth inhibition, 48 h
ENDPOINT LABEL: TGI

The cases that follow already have their TGI on record.
1. COc1ccc(N2CCN(C(=O)c3ccccc3Nc3ccnc(C(F)(F)F)c3)CC2)cc1 = > 100 µM
2. Cc1ccc(Cl)cc1Nc1nc(C(F)(F)F)ccc1C(=O)Nc1cccc(C(F)(F)F)c1 = 3.36 µM
3. Clc1nc(-[n+]2ccc(-c3ccncc3)cc2)nc(Nc2ccccc2)c1Cl = > 100 µM
4. CC(CN=C(CC(=O)c1ccc(Br)cc1)c1ccccc1)N=C(CC(=O)c1ccc(Br)cc1)c1ccccc1 (configuration not stated) = > 100 µM

What measured TGI goes with O=c1[nH]c(=O)n(C2OC(COP(=O)(O)OP(=O)(O)O)C(O)C2O)cc1F (configuration not stated) ?
> 50 µM

Same thing, different molecule: CC(C)C[C@H](NC(=O)[C@H](CCc1ccccc1)NC(=O)CN1CCOCC1)C(=O)N[C@@H](Cc1ccccc1)C(=O)N[C@@H](CC(C)C)C(=O)[C@@]1(C)CO1
0.172 µM

Ok, now CCCCC[C@@H]1OCO[C@@]2(C)/C=C(C)/C=C/C(=O)O[C@H]([C@@H](C)[C@@H](O)[C@H](C)[C@@]3(O)C[C@@H](O[C@H]4C[C@@H](O)[C@H](O)[C@@H](C)O4)[C@H](C)[C@@H](C)O3)[C@@H](OC)/C=C/C=C(\C)C[C@@H]1[C@@H]2O (stereo in doubt)
0.666 µM

# repeat for O=C(/C=C/c1ccc(C(F)(F)F)cc1)c1ccc(Nc2nc(NCCO)nc(NCCO)n2)cc1
4.22 µM

Next: Cc1ccc(S(=O)(=O)N(/N=C(\N)Oc2ccc(Cl)cc2)C(=N)Oc2ccc(Cl)cc2)cc1
> 100 µM
